The origin of these recorded values is patent US12410153B2.

# assay.details: Human pharmacokinetic study, single ascending oral doses
# Assay type: in vivo
# applied.conditions: male, human, plasma, oral, 2 mg, fasted, mean

compound	Cmax [ng/mL]
Cc1ccc(COC(=O)N2CC[C@H](CNc3ncccn3)[C@H](F)C2)cc1 [Form II]	51.5

----------
# assay.details: Repeated once-daily oral dosing with food (Days 1-7) in healthy subjects, PK and PD
# Format: in vivo, human
# applied.conditions: both sexes, human, plasma, oral, 12 mg, intermediate age, 12 mg, Day 1; read-out: AUC0-24, Mean (SD)
experimental.readout: AUC(0-t) (ng·h/mL)

compound	measured
Cc1ccc(COC(=O)N2CC[C@H](CNc3ncccn3)[C@H](F)C2)cc1 [Form II]	2000

----------
# assay.details: Repeated once-daily oral dosing with food (Days 1-7) in healthy subjects, PK and PD
# Type: in vivo, human
# applied.conditions: female, human, plasma, oral, females, all doses pooled, Day 1; read-out: tmax, Median

molecule	Tmax, h
Cc1ccc(COC(=O)N2CC[C@H](CNc3ncccn3)[C@H](F)C2)cc1 [Form II]	2

----------
# assay.details: Repeated once-daily oral dosing with food (Days 1-7) in healthy subjects, PK and PD
# Assay type: in vivo, human
# applied.conditions: male, human, plasma, oral, males, all doses pooled, Day 1; read-out: Cmax, Mean (SD)

compound	Cmax
Cc1ccc(COC(=O)N2CC[C@H](CNc3ncccn3)[C@H](F)C2)cc1 [Form II]	262 ng/mL

----------
# assay.details: Human pharmacokinetic study, single ascending oral doses
# Format: in vivo
# applied.conditions: male, human, plasma, oral, 4 mg, 4 mg (fed), mean
experimental.readout: AUC(0-t) (ng·h/mL)

compound	measured
Cc1ccc(COC(=O)N2CC[C@H](CNc3ncccn3)[C@H](F)C2)cc1 [Form II]	1080

----------
# assay.details: Repeated once-daily oral dosing with food (Days 1-7) in healthy subjects, PK and PD
# Format: in vivo, human
# applied.conditions: male, human, plasma, oral, males, all doses pooled, Day 7; read-out: t1/2, Mean (SD) (converted)

molecule	half-life / h
Cc1ccc(COC(=O)N2CC[C@H](CNc3ncccn3)[C@H](F)C2)cc1 [Form II]	20.6

----------
# assay.details: Repeated once-daily oral dosing with food (Days 1-7) in healthy subjects, PK and PD
# Assay type: in vivo, human
# applied.conditions: both sexes, human, plasma, oral, 8 mg, young subjects, 8 mg, Day 1; read-out: Vz/F, Mean (SD)
experimental.readout: Vd/F (L)

compound	measured
Cc1ccc(COC(=O)N2CC[C@H](CNc3ncccn3)[C@H](F)C2)cc1 [Form II]	101

----------
# assay.details: Repeated once-daily oral dosing with food (Days 1-7) in healthy subjects, PK and PD
# Assay type: in vivo, human
# applied.conditions: both sexes, human, plasma, oral, 8 mg, young subjects, 8 mg, Day 1; read-out: tmax, Mean (SD)

molecule	Tmax (h)
Cc1ccc(COC(=O)N2CC[C@H](CNc3ncccn3)[C@H](F)C2)cc1 [Form II]	2.17

----------
# assay.details: Human pharmacokinetic study, single ascending oral doses
# Assay type: in vivo
# applied.conditions: male, human, plasma, oral, 20 mg, fasted, mean; read-out: Tmax

compound	Tmax
Cc1ccc(COC(=O)N2CC[C@H](CNc3ncccn3)[C@H](F)C2)cc1 [Form II]	1 h

----------
# assay.details: Repeated once-daily oral dosing with food (Days 1-7) in healthy subjects, PK and PD
# Format: in vivo, human
# applied.conditions: both sexes, human, plasma, oral, 12 mg, elderly, 12 mg, Day 7; read-out: tmax, Mean (SD)
experimental.readout: Tmax (h)

compound	u	measured
Cc1ccc(COC(=O)N2CC[C@H](CNc3ncccn3)[C@H](F)C2)cc1 [Form II]	h	2.26

----------
# assay.details: Repeated once-daily oral dosing with food (Days 1-7) in healthy subjects, PK and PD
# Format: in vivo, human
# applied.conditions: both sexes, human, plasma, oral, 20 mg, young subjects, 20 mg, Day 1; read-out: AUC0-24, Mean (SD)

compound	AUC(0-t)
Cc1ccc(COC(=O)N2CC[C@H](CNc3ncccn3)[C@H](F)C2)cc1 [Form II]	3520 ng·h/mL

----------
# assay.details: Repeated once-daily oral dosing with food (Days 1-7) in healthy subjects, PK and PD
# Assay type: in vivo, human
# applied.conditions: both sexes, human, plasma, oral, 16 mg, young subjects, 16 mg, Day 1; read-out: AUC0-24, Mean (SD)
experimental.readout: AUC(0-t)

molecule	measured
Cc1ccc(COC(=O)N2CC[C@H](CNc3ncccn3)[C@H](F)C2)cc1 [Form II]	2660 ng·h/mL

----------
# assay.details: Repeated once-daily oral dosing with food (Days 1-7) in healthy subjects, PK and PD
# Format: in vivo, human
# applied.conditions: both sexes, human, plasma, oral, 20 mg, young subjects, 20 mg, Day 1; read-out: AUClast, Mean (SD)
# Protocol: A randomized, double-blind, placebo-controlled, parallel-dose group in-patient study is conducted to investigate the pharmacodynamic (PD) effects of crystalline Form II of Compound (I) in healthy subjects. The study is designed as a three-part, sequential study. […]
experimental.readout: AUC(0-t) (ng·h/mL)

molecule	measured
Cc1ccc(COC(=O)N2CC[C@H](CNc3ncccn3)[C@H](F)C2)cc1 [Form II]	3480

----------
# assay.details: Repeated once-daily oral dosing with food (Days 1-7) in healthy subjects, PK and PD
# Format: in vivo, human
# applied.conditions: both sexes, human, plasma, oral, Day 1; read-out: median Tmax values, range
# Description: A randomized, double-blind, placebo-controlled, parallel-dose group in-patient study is conducted to investigate the pharmacodynamic (PD) effects of crystalline Form II of Compound (I) in healthy subjects. The study is designed as a three-part, sequential study. […]
experimental.readout: Tmax

compound	experimental.readout	measured
Cc1ccc(COC(=O)N2CC[C@H](CNc3ncccn3)[C@H](F)C2)cc1 [Form II]	Tmax	2 to 3 h

----------
# assay.details: Repeated once-daily oral dosing with food (Days 1-7) in healthy subjects, PK and PD
# Type: in vivo, human
# applied.conditions: both sexes, human, plasma, oral, 8 mg, young subjects, 8 mg, Day 7; read-out: AUCinf, Mean (SD)

compound	AUC(0-inf) (µg·h/mL)
Cc1ccc(COC(=O)N2CC[C@H](CNc3ncccn3)[C@H](F)C2)cc1 [Form II]	4.11

----------
# assay.details: Repeated once-daily oral dosing with food (Days 1-7) in healthy subjects, PK and PD
# Type: in vivo, human
# applied.conditions: both sexes, human, plasma, oral, 12 mg, intermediate age, 12 mg, Day 7; read-out: AUCinf, Mean (SD)

molecule	AUC(0-inf), ng·h/mL
Cc1ccc(COC(=O)N2CC[C@H](CNc3ncccn3)[C@H](F)C2)cc1 [Form II]	8100

----------
# assay.details: Repeated once-daily oral dosing with food (Days 1-7) in healthy subjects, PK and PD
# Type: in vivo, human
# applied.conditions: both sexes, human, plasma, oral, 20 mg, young subjects, 20 mg, Day 1; read-out: tmax, Median

compound	Tmax / h
Cc1ccc(COC(=O)N2CC[C@H](CNc3ncccn3)[C@H](F)C2)cc1 [Form II]	2.25

----------
# assay.details: Repeated once-daily oral dosing with food (Days 1-7) in healthy subjects, PK and PD
# Assay type: in vivo, human
# applied.conditions: male, human, plasma, oral, males, all doses pooled, Day 1; read-out: tmax, Mean (SD)

molecule	Tmax
Cc1ccc(COC(=O)N2CC[C@H](CNc3ncccn3)[C@H](F)C2)cc1 [Form II]	2.12 h

----------
# assay.details: Repeated once-daily oral dosing with food (Days 1-7) in healthy subjects, PK and PD
# Assay type: in vivo, human
# applied.conditions: male, human, plasma, oral, males, all doses pooled, Day 1; read-out: Vz/F, Mean (SD)
experimental.readout: Vd/F (L)

compound	measured
Cc1ccc(COC(=O)N2CC[C@H](CNc3ncccn3)[C@H](F)C2)cc1 [Form II]	147

----------
# assay.details: Human pharmacokinetic study, single ascending oral doses
# Type: in vivo
# applied.conditions: male, human, plasma, oral, 2 mg, fasted, mean; read-out: t1/2 (converted)

compound	half-life
Cc1ccc(COC(=O)N2CC[C@H](CNc3ncccn3)[C@H](F)C2)cc1 [Form II]	16.1 h

----------
# assay.details: Repeated once-daily oral dosing with food (Days 1-7) in healthy subjects, PK and PD
# Assay type: in vivo, human
# applied.conditions: both sexes, human, plasma, oral, 16 mg, young subjects, 16 mg, Day 1; read-out: tmax, Mean (SD)
# Method: A randomized, double-blind, placebo-controlled, parallel-dose group in-patient study is conducted to investigate the pharmacodynamic (PD) effects of crystalline Form II of Compound (I) in healthy subjects. The study is designed as a three-part, sequential study. […]

compound	u	Tmax
Cc1ccc(COC(=O)N2CC[C@H](CNc3ncccn3)[C@H](F)C2)cc1 [Form II]	h	2.58

----------
# assay.details: Single-dose pharmacokinetics in rats (oral and IV)
# Format: in vivo
# applied.conditions: male, Sprague-Dawley, rat, plasma; IV 2 mg/kg, mean (S.D.)
# Description: Male Sprague-Dawley rats (N=8; N=4 oral and N=4 intravenous [IV]) weighing approximately 250-280 g and male rhesus monkeys (N=4, crossover) weighing 6.0-8.8 kg were used for the PK studies. […] The concentrations of Form II in rat and monkey plasma were determined by LC/MS/MS analysis in the positive ion mode using a heated nebulizer interface. The lower limit of quantitation was 2.5 ng/mL (approximately 0.00697 μM).

compound	AUC(0-inf) [µM·h]
Cc1ccc(COC(=O)N2CC[C@H](CNc3ncccn3)[C@H](F)C2)cc1 [Form II]	3.31
